The compounds listed here are annotated with their IC50.
Molecular target: Kappa-type opioid receptor (Cavia porcellus, UniProt P41144)
Sequence (P41144 whole entry): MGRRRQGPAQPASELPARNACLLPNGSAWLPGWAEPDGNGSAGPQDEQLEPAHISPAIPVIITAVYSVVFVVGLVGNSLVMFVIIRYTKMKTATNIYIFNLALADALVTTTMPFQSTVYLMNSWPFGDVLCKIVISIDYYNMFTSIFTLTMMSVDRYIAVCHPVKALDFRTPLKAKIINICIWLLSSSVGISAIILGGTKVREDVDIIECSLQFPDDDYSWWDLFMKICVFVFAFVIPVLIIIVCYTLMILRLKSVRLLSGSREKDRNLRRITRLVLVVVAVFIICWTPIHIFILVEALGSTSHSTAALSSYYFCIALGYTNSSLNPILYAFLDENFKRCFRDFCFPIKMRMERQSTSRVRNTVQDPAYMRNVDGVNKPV
Assay: Antagonist activity against kappa-opioid receptor in guinea pig ileum in the presence of ethylketazocine

[
  {
    "Compound": "CN1CC[C@]23c4c5ccc(O)c4O[C@H]2Cc2c([nH]c4ccccc24)[C@H]3[C@H]1C5",
    "Endpoint Value": "990 nM"
  }
]

# input for lookup
Exam item: // IC50 lookup, key: Oc1ccc2c3c1O[C@H]1c4[nH]c5ccccc5c4C[C@@]4(O)[C@@H](C2)N(CC2CC2)CC[C@]314 [NALTRINDOLE]
Marked response: 2000 nM

---

Target: Delta-type opioid receptor (Mus musculus)
Sequence (P32300 whole entry): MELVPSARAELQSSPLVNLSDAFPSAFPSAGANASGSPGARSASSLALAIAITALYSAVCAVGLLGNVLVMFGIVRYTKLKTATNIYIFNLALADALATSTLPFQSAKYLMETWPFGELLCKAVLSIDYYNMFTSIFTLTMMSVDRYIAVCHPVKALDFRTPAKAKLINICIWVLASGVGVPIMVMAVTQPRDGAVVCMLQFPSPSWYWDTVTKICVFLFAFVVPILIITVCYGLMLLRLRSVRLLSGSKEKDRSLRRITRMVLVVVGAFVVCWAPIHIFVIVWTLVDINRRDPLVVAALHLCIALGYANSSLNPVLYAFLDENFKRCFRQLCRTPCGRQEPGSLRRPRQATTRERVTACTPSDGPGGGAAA
Test: Antagonist activity against delta-opioid receptor in mouse vas deferens in the presence of DADLE
IC50 values, listed per item
Field: numeric (µM). Do not append units.

[
  {
    "Molecule": "Oc1ccc2c3c1O[C@H]1c4[nH]c5ccccc5c4C[C@@]4(O)[C@@H](C2)N(CC2CC2)CC[C@]314 [NALTRINDOLE]",
    "Assayed System": "Delta-type opioid receptor (Mus musculus)",
    "Units Label": "µM",
    "IC50": 459
  },
  {
    "Molecule": "CN1CC[C@]23c4c5ccc(O)c4O[C@H]2Cc2c([nH]c4ccccc24)[C@H]3[C@H]1C5",
    "Assayed System": "Delta-type opioid receptor (Mus musculus)",
    "Units Label": "µM",
    "IC50": 1
  }
]

Exam item: Item Oc1ccc2c3c1O[C@H]1Cc4c([nH]c5ccccc45)[C@H]4[C@@H](C2)N(CC2CC2)CC[C@]314 has what recorded IC50?
Marked response: 8.2
